Test name: qHTS of small molecules that selectively kill Giardia lamblia: Hit Validation in HepG2 cytotox;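 further: compound exposure lasted overnight at 37 deg C; nearly all actives have a fitted effect of over 55% in size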
Experimental parameters: cell viability; HepG2 cytotoxicity; series mostly up to 38.3 µM
The whole screen tested about 1,300 compounds, of which about 150 (12%) were called active. Roughly 30% stayed inconclusive and do not appear here. The call rests on the fitted dose curve; in most records, active means well fitted cell-killing curve with a large enough effect; inconclusive means small, poorly fitted or top-dose-only effect, or effect the other way; inactive means flat fitted curve, though single readings scatter. The sample holds actives, similar compounds and a random draw of the others, so the mix is not that of the screen.
Respond with a class label; see active, inactive

Challenge: Assay result, entry NC(=O)c1c(NC(=O)c2ccc([N+](=O)[O-])o2)sc2c1CCCC2 — outcome?
Response given: active

Challenge: Assay result, entry O=[N+]([O-])c1ccc2nc(-c3ccc(OC(F)F)cc3)cn2c1 — outcome?
Response given: inactive

Challenge: Assay result, entry O=C(Cc1ccc([N+](=O)[O-])cc1)N/N=C/c1ccc([N+](=O)[O-])o1 — outcome?
Response given: active

Challenge: Assay result, entry O=C1c2cc(F)ccc2-n2c1nc1ccccc1c2=O — outcome?
Response given: active

Challenge: Assay result, entry CC(=O)N1CCc2c(sc(NC(=O)c3ccc([N+](=O)[O-])o3)c2C#N)C1 — outcome?
Response given: active

Challenge: Assay result, entry CCn1ncc([N+](=O)[O-])c1C(=O)Nc1nc2cccc(C)c2s1 — outcome?
Response given: inactive

Challenge: Assay result, entry O=C(Nc1nccs1)c1cc([N+](=O)[O-])ccc1Cl — outcome?
Response given: inactive

Challenge: Assay result, entry Cc1ncc([N+](=O)[O-])n1CCOC(=O)Nc1ccc([N+](=O)[O-])cc1 — outcome?
Response given: inactive

Challenge: Assay result, entry O=[N+]([O-])c1ccc(COn2nnc3ccccc32)cc1 — outcome?
Response given: inactive

Challenge: Assay result, entry COc1cccc(CN=c2c([N+](=O)[O-])nn(-c3ccccc3C)n2O)c1 — outcome?
Response given: inactive

====

Test name: qHTS of small molecules that selectively kill Giardia lamblia: Hit Validation in HepG2 cytotox;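 further: compound exposure lasted overnight at 37 deg C; nearly all actives have a fitted effect of over 55% in size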
Experimental parameters: cell viability; HepG2 cytotoxicity; series mostly up to 38.3 µM
Method: Giardia lamblia is a human pathogen afflicting impoverished nations, and the most common cause of outbreaks of diarrhea in the United States. Giardia has been classified by the CDC as a category B bioterrorism organism. […] 4 uL of HepG2 cells ae dispensed into white 1536-well plates. […] 2 uL of ATPLite is added and the plates are incubated for 15 min at room temperature before they are read on the ViewLux for luminiescence.
Out of some 1,300 compounds screened, about 150 (12%) were called active. Another 30% or so got no clear call; they are omitted. Calls follow the shape of the dose curve; as a rule, active = well fitted cell-killing curve with a large enough effect; inconclusive = small, poorly fitted or top-dose-only effect, or effect the other way; inactive = flat fitted curve, though single readings scatter. Shown is part of a subset that was picked to be rich in actives.
Respond with a class label; see active, inactive

Challenge: Assay result, entry CC(C)C(=O)NC(=S)Nc1ccc(S(=O)(=O)N2CCCC2)cc1 — outcome?
Response given: inactive

Challenge: Assay result, entry O=c1c(-c2ccc(F)cc2)coc2cc(O)ccc12 — outcome?
Response given: inactive

Challenge: Assay result, entry COc1ccc(N2CCCC2)c(NC(=O)c2ccc([N+](=O)[O-])o2)c1 — outcome?
Response given: inactive

Challenge: Assay result, entry NC(=O)c1ccc(Nc2ccc([N+](=O)[O-])cc2[N+](=O)[O-])cc1 — outcome?
Response given: inactive

Challenge: Assay result, entry NCCCn1c(C(=O)c2cc(Cl)c(N)c(Cl)c2)c2ccccc2[n+]1[O-] — outcome?
Response given: inactive

Challenge: Assay result, entry Cc1nonc1OCCn1c([N+](=O)[O-])cnc1C — outcome?
Response given: inactive

Challenge: Assay result, entry COC(=O)Nc1nc2ccc(C(=O)c3cccs3)cc2[nH]1 — outcome?
Response given: inactive

Challenge: Assay result, entry CCOC(=O)c1c(C)[nH]c(C)c1S(=O)(=O)N1CCN(c2ccc([N+](=O)[O-])cc2)CC1 — outcome?
Response given: inactive

Challenge: Assay result, entry O=c1[nH]c(=O)c2cc([N+](=O)[O-])cc([N+](=O)[O-])c2[nH]1 — outcome?
Response given: inactive

Challenge: Assay result, entry c1csc(-c2ccc(N3CCOCC3)nn2)c1 — outcome?
Response given: active
